# Target or test system: viral glycoproteins (H and F); Nectin-4 (Measles virus, UniProt Q786F3)
# Sequence (Q786F3 24-112): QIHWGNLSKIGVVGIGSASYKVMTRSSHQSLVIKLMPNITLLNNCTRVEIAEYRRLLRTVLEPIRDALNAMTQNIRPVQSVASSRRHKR
# Assay procedure: beta-galactosidase complementation-based fusion assay, Nectin-4 target cells
Square brackets hold non-standard residues; d marks the D form. Peptide text beside a SMILES is read from it. * marks the point of attachment. X4 = CC(C)CCC[C@@H](C)[C@H]1CC[C@H]2[C@@H]3CC=C4C[C@@H](OC(=O)CCOCCOCCOCCOCCNC(=O)C*)CC[C@]4(C)[C@H]3CC[C@]12C; X3 = CC(C)CCC[C@@H](C)[C@H]1CC[C@H]2[C@@H]3CC=C4C[C@@H](OC(=O)C*)CC[C@]4(C)[C@H]3CC[C@]12C; Cbz = O=C(OCc1ccccc1)*
Measured endpoint: IC90

1) CC(C)CCC[C@@H](C)[C@H]1CC[C@H]2[C@@H]3CC=C4C[C@@H](OC(=O)CSC[C@H](NC(=O)CNC(=O)[C@H](CO)NC(=O)CNC(=O)[C@H](CO)NC(=O)CNC(=O)CNC(=O)[C@H](Cc5ccccc5)NC(=O)[C@@H](Cc5ccccc5)NC(=O)OCc5ccccc5)C(=O)O)CC[C@]4(C)[C@H]3CC[C@]12C [FIP-chol] (Cbz-[dF]FGGSGSGC(X3)-OH); 7.62 µM
2) O=C(CCN1C(=O)CC(SC[C@H](NC(=O)CNC(=O)[C@H](Cc2ccccc2)NC(=O)[C@@H](Cc2ccccc2)NC(=O)OCc2ccccc2)C(=O)O)C1=O)NCCOCCOCCOCCOCCOCCOCCOCCOCCOCCOCCOCCNC(=O)CCN1C(=O)CC(SC[C@H](NC(=O)CNC(=O)[C@H](Cc2ccccc2)NC(=O)[C@@H](Cc2ccccc2)NC(=O)OCc2ccccc2)C(=O)O)C1=O (stereo partly shown) [[FIP]2-peg11 (no GSGSG)]; > 10 µM
3) O=C(CNC(=O)[C@H](Cc1ccccc1)NC(=O)[C@@H](Cc1ccccc1)NC(=O)OCc1ccccc1)NCC(=O)N[C@@H](CO)C(=O)NCC(=O)N[C@@H](CO)C(=O)NCC(=O)N[C@@H](CS)C(=O)O [FIP, Z-D-FFG-GSGSG-C (SEQ ID NO. 52)] (Cbz-[dF]FGGSGSGC-OH); > 10 µM
4) CC(C)CCC[C@@H](C)[C@H]1CC[C@H]2[C@@H]3CC=C4C[C@@H](OC(=O)CCOCCOCCOCCOCCNC(=O)CSC[C@H](NC(=O)CNC(=O)[C@H](CO)NC(=O)CNC(=O)[C@H](CO)NC(=O)CNC(=O)CNC(=O)[C@H](Cc5ccccc5)NC(=O)[C@@H](Cc5ccccc5)NC(=O)OCc5ccccc5)C(=O)O)CC[C@]4(C)[C@H]3CC[C@]12C [FIP-peg4-chol] (Cbz-[dF]FGGSGSGC(X4)-OH); 7.62 µM

====

# Tested on: viral glycoproteins (H and F); CD150
# Sequence (Q786F3 113-550, one chain of several): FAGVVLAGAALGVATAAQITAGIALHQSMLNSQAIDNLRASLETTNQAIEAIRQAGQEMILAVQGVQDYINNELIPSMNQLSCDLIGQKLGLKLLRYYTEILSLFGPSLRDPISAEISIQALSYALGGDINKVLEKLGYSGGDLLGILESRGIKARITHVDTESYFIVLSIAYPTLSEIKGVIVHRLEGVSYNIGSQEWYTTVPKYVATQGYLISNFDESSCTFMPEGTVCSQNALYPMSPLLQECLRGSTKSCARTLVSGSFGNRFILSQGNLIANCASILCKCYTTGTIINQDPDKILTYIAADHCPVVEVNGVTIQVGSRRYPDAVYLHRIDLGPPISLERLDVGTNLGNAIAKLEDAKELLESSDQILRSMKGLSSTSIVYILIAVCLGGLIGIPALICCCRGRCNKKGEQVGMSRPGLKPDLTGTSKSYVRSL
# Assay procedure: beta-galactosidase complementation-based fusion assay, CD150 target cells
# Setup conditions: read-out: CD150 IC90
Square brackets hold non-standard residues; d marks the D form. Peptide text beside a SMILES is read from it. * marks the point of attachment. Succinimide(1-Et,3-yl) = CCN1C(=O)CC(*)C1=O; Cbz = O=C(OCc1ccccc1)*
Measured endpoint: IC90

1. O=C(CCN1C(=O)CC(SC[C@H](NC(=O)CNC(=O)[C@H](Cc2ccccc2)NC(=O)[C@@H](Cc2ccccc2)NC(=O)OCc2ccccc2)C(=O)O)C1=O)NCCOCCOCCOCCOCCOCCOCCOCCOCCOCCOCCOCCNC(=O)CCN1C(=O)CC(SC[C@H](NC(=O)CNC(=O)[C@H](Cc2ccccc2)NC(=O)[C@@H](Cc2ccccc2)NC(=O)OCc2ccccc2)C(=O)O)C1=O (stereo partly drawn) [[FIP]2-peg11 (no GSGSG)]; > 1 µM
2. CCN1C(=O)CC(SC[C@H](NC(=O)CNC(=O)[C@H](Cc2ccccc2)NC(=O)[C@@H](Cc2ccccc2)NC(=O)OCc2ccccc2)C(=O)O)C1=O (stereo partly drawn) [Monomer N-Maleimide FIP (no GSGSG)] (Cbz-[dF]FGC(Succinimide(1-Et,3-yl))-OH); > 1 µM
3. CC(C)CCC[C@@H](C)[C@H]1CC[C@H]2[C@@H]3CC=C4C[C@@H](OC(=O)CCOCCOCCOCCOCCOCCOCCOCCOCCOCCOCCOCCOCCOCCOCCOCCOCCOCCOCCOCCOCCOCCOCCOCCOCCNC(=O)CSC[C@H](NC(=O)CNC(=O)[C@H](Cc5ccccc5)NC(=O)[C@@H](Cc5ccccc5)NC(=O)OCc5ccccc5)C(=O)O)CC[C@]4(C)[C@H]3CC[C@]12C [peg24 chol [FIP] (no GSGSG)]; 0.544 µM
4. CC(C)CCC[C@@H](C)[C@H]1CC[C@H]2[C@@H]3CC=C4C[C@@H](OC(=O)CCOCCOCCOCCOCCNC(=O)CSC[C@H](NC(=O)CNC(=O)[C@H](Cc5ccccc5)NC(=O)[C@@H](Cc5ccccc5)NC(=O)OCc5ccccc5)C(=O)O)CC[C@]4(C)[C@H]3CC[C@]12C [FIP-peg4-chol (no GSGSG)]; > 0.9 µM
5. CC(C)CCC[C@@H](C)[C@H]1CC[C@H]2[C@@H]3CC=C4C[C@@H](OCCN(CCNC(=O)CCOCCOCCOCCOCCNC(=O)CCCN5C(=O)CC(SC[C@H](NC(=O)CNC(=O)[C@H](Cc6ccccc6)NC(=O)[C@@H](Cc6ccccc6)NC(=O)OCc6ccccc6)C(=O)O)C5=O)CCNC(=O)CCOCCOCCOCCOCCNC(=O)CCCN5C(=O)CC(SC[C@H](NC(=O)CNC(=O)[C@H](Cc6ccccc6)NC(=O)[C@@H](Cc6ccccc6)NC(=O)OCc6ccccc6)C(=O)O)C5=O)CC[C@]4(C)[C@H]3CC[C@]12C (stereo partly drawn) [[FIP-peg4]2-chol (no GSGSG)]; > 1 µM
6. CC(C)CCC[C@@H](C)[C@H]1CC[C@H]2[C@@H]3CC=C4C[C@@H](OC(=O)CSC[C@H](NC(=O)CNC(=O)[C@H](Cc5ccccc5)NC(=O)[C@@H](Cc5ccccc5)NC(=O)OCc5ccccc5)C(=O)O)CC[C@]4(C)[C@H]3CC[C@]12C [FIP-chol (no GSGSG)]; > 1 µM

====

# Target or test system: viral glycoproteins (H and F); Nectin-4 (Measles virus, UniProt Q786F3)
# Assay procedure: beta-galactosidase complementation-based fusion assay, Nectin-4 target cells
# Setup conditions: read-out: Nectin4 IC90
Square brackets hold non-standard residues; d marks the D form. Peptide text beside a SMILES is read from it. * marks the point of attachment. X3 = CC(C)CCC[C@@H](C)[C@H]1CC[C@H]2[C@@H]3CC=C4C[C@@H](OC(=O)C*)CC[C@]4(C)[C@H]3CC[C@]12C; Cbz = O=C(OCc1ccccc1)*
Measured endpoint: IC90

1. CC(C)CCC[C@@H](C)[C@H]1CC[C@H]2[C@@H]3CC=C4C[C@@H](OC(=O)CSC[C@H](NC(=O)CNC(=O)[C@H](Cc5ccccc5)NC(=O)[C@@H](Cc5ccccc5)NC(=O)OCc5ccccc5)C(=O)O)CC[C@]4(C)[C@H]3CC[C@]12C [FIP-chol (no GSGSG)]; > 1 µM
2. CC(C)CCC[C@@H](C)[C@H]1CC[C@H]2[C@@H]3CC=C4C[C@@H](OC(=O)CCOCCOCCOCCOCCOCCOCCOCCOCCOCCOCCOCCOCCOCCOCCOCCOCCOCCOCCOCCOCCOCCOCCOCCOCCNC(=O)CSC[C@H](NC(=O)CNC(=O)[C@H](Cc5ccccc5)NC(=O)[C@@H](Cc5ccccc5)NC(=O)OCc5ccccc5)C(=O)O)CC[C@]4(C)[C@H]3CC[C@]12C [peg24 chol [FIP] (no GSGSG)]; 0.568 µM
3. CC(C)CCC[C@@H](C)[C@H]1CC[C@H]2[C@@H]3CC=C4C[C@@H](OCCN(CCNC(=O)CCOCCOCCOCCOCCNC(=O)CCCN5C(=O)CC(SC[C@H](NC(=O)CNC(=O)[C@H](Cc6ccccc6)NC(=O)[C@@H](Cc6ccccc6)NC(=O)OCc6ccccc6)C(=O)O)C5=O)CCNC(=O)CCOCCOCCOCCOCCNC(=O)CCCN5C(=O)CC(SC[C@H](NC(=O)CNC(=O)[C@H](Cc6ccccc6)NC(=O)[C@@H](Cc6ccccc6)NC(=O)OCc6ccccc6)C(=O)O)C5=O)CC[C@]4(C)[C@H]3CC[C@]12C (stereo partly drawn) [[FIP-peg4]2-chol (no GSGSG)]; > 1 µM
4. O=C(CNC(=O)[C@H](Cc1ccccc1)NC(=O)[C@@H](Cc1ccccc1)NC(=O)OCc1ccccc1)NCC(=O)N[C@@H](CO)C(=O)NCC(=O)N[C@@H](CO)C(=O)NCC(=O)N[C@@H](CS)C(=O)O [FIP, Z-D-FFG-GSGSG-C (SEQ ID NO. 52)] (Cbz-[dF]FGGSGSGC-OH); > 10 µM
5. O=C(CCN1C(=O)CC(SC[C@H](NC(=O)CNC(=O)[C@H](Cc2ccccc2)NC(=O)[C@@H](Cc2ccccc2)NC(=O)OCc2ccccc2)C(=O)O)C1=O)NCCOCCOCCOCCOCCOCCOCCOCCOCCOCCOCCOCCNC(=O)CCN1C(=O)CC(SC[C@H](NC(=O)CNC(=O)[C@H](Cc2ccccc2)NC(=O)[C@@H](Cc2ccccc2)NC(=O)OCc2ccccc2)C(=O)O)C1=O (stereo partly drawn) [[FIP]2-peg11 (no GSGSG)]; > 1 µM
6. CC(C)CCC[C@@H](C)[C@H]1CC[C@H]2[C@@H]3CC=C4C[C@@H](OC(=O)CSC[C@H](NC(=O)CNC(=O)[C@H](CO)NC(=O)CNC(=O)[C@H](CO)NC(=O)CNC(=O)CNC(=O)[C@H](Cc5ccccc5)NC(=O)[C@@H](Cc5ccccc5)NC(=O)OCc5ccccc5)C(=O)O)CC[C@]4(C)[C@H]3CC[C@]12C [FIP-chol] (Cbz-[dF]FGGSGSGC(X3)-OH); > 10 µM

Taken from patent US20230014151A1.
